Biological target: Delta-type opioid receptor (Mus musculus)
Sequence (P32300 whole entry): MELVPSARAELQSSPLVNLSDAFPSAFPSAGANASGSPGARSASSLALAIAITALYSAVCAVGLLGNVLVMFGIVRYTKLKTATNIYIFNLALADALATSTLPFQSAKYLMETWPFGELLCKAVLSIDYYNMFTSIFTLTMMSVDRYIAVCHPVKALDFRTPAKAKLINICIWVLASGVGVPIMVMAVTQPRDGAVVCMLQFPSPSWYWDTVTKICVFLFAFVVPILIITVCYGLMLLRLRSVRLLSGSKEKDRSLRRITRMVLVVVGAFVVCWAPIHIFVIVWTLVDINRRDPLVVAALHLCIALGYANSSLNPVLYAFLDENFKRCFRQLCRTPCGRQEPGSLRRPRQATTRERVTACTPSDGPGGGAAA
Assay: Displacement of [3H]DPDPE from mouse delta opioid receptor in whole brain without cerebellum
observation_type: pKi
Notebook: values listed as pKi are -log10 of the concentration (mol/L).

Oc1ccc2c(c1)[C@]13CCN(CC4CC4)[C@H](C2)[C@]1(O)CC[C@@]1(C3)O[C@H]2CO[C@@H]3N2[C@H]1O[C@]31CC[C@@]2(O)[C@H]3Cc4ccc(O)cc4[C@@]2(CCN3CC2CC2)C1 ... 8.22

# context switch: different molecule, same pKi
In: Specify measured pKi for CN1CC[C@]23c4c5ccc(O)c4O[C@H]2[C@]2(CC[C@@]3(O)[C@H]1C5)O[C@H]1CO[C@@H]3N1[C@H]2O[C@]31CC[C@@]2(O)[C@H]3Cc4ccc(O)c5c4[C@@]2(CCN3C)[C@H]1O5 .
Out: 7.28

---

// reported pKi per item
Biological target: Mu-type opioid receptor (Mus musculus)
Assay: Displacement of [3H]DAMGO from mouse mu opioid receptor in whole brain without cerebellum
pKi field: float, defined as -log10 of concentration (mol/L).

Consider the following illustrative entries.
CN1CC[C@]23c4c5ccc(O)c4O[C@H]2[C@]2(CC[C@@]3(O)[C@H]1C5)O[C@H]1CO[C@@H]3N1[C@H]2O[C@]31CC[C@@]2(O)[C@H]3Cc4ccc(O)c5c4[C@@]2(CCN3C)[C@H]1O5 ... 8.68
Oc1ccc2c3c1O[C@H]1[C@]4(CC[C@@]5(O)[C@@H](C2)N(CC2CCC2)CC[C@]315)O[C@H]1CO[C@@H]2N1[C@H]4O[C@]21CC[C@@]2(O)[C@H]3Cc4ccc(O)c5c4[C@@]2(CCN3CC2CCC2)[C@H]1O5 ... 8.59
Oc1ccc2c3c1O[C@H]1[C@]4(CC[C@@]5(O)[C@@H](C2)N(CC2CC2)CC[C@]315)O[C@H]1CO[C@@H]2N1[C@H]4O[C@]21CC[C@@]2(O)[C@H]3Cc4ccc(O)c5c4[C@@]2(CCN3CC2CC2)[C@H]1O5 ... 9.32

In: Specify measured pKi for Oc1ccc2c(c1)[C@]13CCN(CC4CC4)[C@H](C2)[C@]1(O)CC[C@@]1(C3)O[C@H]2CO[C@@H]3N2[C@H]1O[C@]31CC[C@@]2(O)[C@H]3Cc4ccc(O)cc4[C@@]2(CCN3CC2CC2)C1 .
Out: 9.11

In: Query pKi for Oc1ccc2c3c1O[C@@H]1[C@]34CCN(CC3CC3)[C@H](C2)[C@]4(O)CC[C@@]12C=N[C@@H]([C@]1(O)CC[C@@]3(O)[C@H]4Cc5ccc(O)c6c5[C@@]3(CCN4CC3CC3)[C@H]1O6)O2
Out: 8.99

---

Target: Mu-type opioid receptor (Mus musculus, UniProt P42866)
Sequence (P42866 whole entry): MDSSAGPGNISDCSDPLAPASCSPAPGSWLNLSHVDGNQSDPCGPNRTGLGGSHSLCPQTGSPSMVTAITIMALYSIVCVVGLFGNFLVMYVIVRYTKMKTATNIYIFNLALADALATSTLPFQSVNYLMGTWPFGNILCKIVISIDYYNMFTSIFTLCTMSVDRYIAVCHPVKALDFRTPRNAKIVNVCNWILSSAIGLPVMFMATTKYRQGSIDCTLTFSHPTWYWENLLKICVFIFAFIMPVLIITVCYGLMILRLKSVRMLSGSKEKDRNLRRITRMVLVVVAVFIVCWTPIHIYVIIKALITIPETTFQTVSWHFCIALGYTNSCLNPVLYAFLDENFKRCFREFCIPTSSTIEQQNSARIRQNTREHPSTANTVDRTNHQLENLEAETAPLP
Test: Displacement of [3H]DAMGO from mouse mu opioid receptor in whole brain without cerebellum
observation_type: Ki (nM)
Give your result in nM as a bare value.

# example entries with known answers
Oc1ccc2c3c1O[C@@H]1[C@]34CCN(CC3CC3)[C@H](C2)[C@]4(O)CC[C@@]12C=N[C@H]([C@]1(O)CC[C@@]3(O)[C@H]4Cc5ccc(O)c6c5[C@@]3(CCN4CC3CC3)[C@H]1O6)O2 ... 1.9
Oc1ccc2c3c1O[C@H]1[C@]4(CC[C@@]5(O)[C@@H](C2)N(CC2CC2)CC[C@]315)O[C@@H]1CO[C@H]2N1[C@@H]4O[C@]21CC[C@@]2(O)[C@H]3Cc4ccc(O)c5c4[C@@]2(CCN3CC2CC2)[C@H]1O5 ... 38.2
CC(C)CN1CC[C@]23c4c5ccc(O)c4O[C@H]2[C@]2(CC[C@@]3(O)[C@H]1C5)O[C@H]1CO[C@@H]3N1[C@H]2O[C@]31CC[C@@]2(O)[C@H]3Cc4ccc(O)c5c4[C@@]2(CCN3CC(C)C)[C@H]1O5 ... 25.3

Now consider a different compound.
In: Given Oc1ccc2c3c1O[C@H]1[C@]4(CC[C@H]5[C@@H](C2)N(CC2CC2)CC[C@@]351)O[C@H]1CO[C@@H]2N1[C@H]4O[C@]21CC[C@H]2[C@H]3Cc4ccc(O)c5c4[C@@]2(CCN3CC2CC2)[C@H]1O5 , respond with its Ki.
Out: 0.719
